target: c-kit autophosphorylation (Phospho c-Kit Tyr721) in HMC 1.1 (exon 11/13) cells, V654A (Homo sapiens, UniProt P10721, V560G/V654A); construct: endogenous in cells; assay: pKIT Meso Scale Discovery (MSD) assay, inhibition of autophosphorylation of KIT, HMC1.1_V654A; conditions: Table 1, cell line not named for Table 1, b1056 names pKIT HMC1.1_V654A, read-out: Code (IC50 for inhibition of autophosphorylation of KIT, pKIT MSD assay)
Sequence (P10721 26-976 V560G/V654A): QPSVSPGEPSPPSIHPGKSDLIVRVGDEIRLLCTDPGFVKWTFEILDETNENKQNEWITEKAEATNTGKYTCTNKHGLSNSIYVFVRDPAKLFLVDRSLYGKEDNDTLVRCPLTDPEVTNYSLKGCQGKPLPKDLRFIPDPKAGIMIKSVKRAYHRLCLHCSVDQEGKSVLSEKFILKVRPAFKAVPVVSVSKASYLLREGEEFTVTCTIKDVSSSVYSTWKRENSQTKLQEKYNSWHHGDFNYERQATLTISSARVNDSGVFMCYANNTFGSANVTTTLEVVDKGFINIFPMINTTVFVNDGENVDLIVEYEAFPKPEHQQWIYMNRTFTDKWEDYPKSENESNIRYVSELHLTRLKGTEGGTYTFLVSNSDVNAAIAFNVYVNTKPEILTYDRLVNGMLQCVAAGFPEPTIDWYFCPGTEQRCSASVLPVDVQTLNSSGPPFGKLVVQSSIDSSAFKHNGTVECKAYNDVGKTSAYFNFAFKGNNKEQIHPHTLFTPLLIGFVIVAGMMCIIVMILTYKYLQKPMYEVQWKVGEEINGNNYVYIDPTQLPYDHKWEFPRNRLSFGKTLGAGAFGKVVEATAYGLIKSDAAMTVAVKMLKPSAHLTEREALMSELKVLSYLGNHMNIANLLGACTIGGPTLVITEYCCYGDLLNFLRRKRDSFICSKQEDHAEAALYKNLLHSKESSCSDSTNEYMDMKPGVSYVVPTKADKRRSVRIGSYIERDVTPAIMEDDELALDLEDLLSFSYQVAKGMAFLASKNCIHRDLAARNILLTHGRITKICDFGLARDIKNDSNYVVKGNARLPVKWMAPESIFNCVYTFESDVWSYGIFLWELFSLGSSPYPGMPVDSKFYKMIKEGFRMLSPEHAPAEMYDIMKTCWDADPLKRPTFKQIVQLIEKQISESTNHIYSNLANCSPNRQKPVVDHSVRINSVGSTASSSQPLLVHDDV
quantity.kind: IC50

1. Cn1cc(-c2cnc(Nc3cc(N)nc(C(F)F)n3)cc2OC2CCOC2)cn1 (stereo not drawn) [Compound 106]; < 10 nM
2. CNC(=O)c1cnc(Nc2cc(N)nc(C(F)F)n2)cc1N[C@@H](C)C(F)F [Compound 74]; < 10 nM
3. CC(C)Nc1cc(Nc2cc(N)nc(C(F)F)n2)ncc1C(=O)NCC1CC1 [Compound 86]; 10 to 40 nM
4. CNC(C)(C)Cn1cc(-c2cnc(Nc3cc(N)nc(C(F)F)n3)cc2OC(F)(F)F)cn1 [Compound 200]; < 10 nM
5. CCOc1cc(Nc2cc(N)nc(C(F)F)n2)ncc1-c1cnn(CC(C)(C)O)c1 [Compound 152]; < 10 nM

Item under review: COc1cc(Nc2cc(N)nc(C(F)F)n2)ncc1-c1cnn(C2CC(O)C2)c1 (stereo not drawn) [Compound 112] . Reported IC50?
10 to 40 nM

And what about the molecule [2H]C([2H])([2H])Nc1cc(Nc2cc(N)nc(C(F)F)n2)ncc1C(=O)NC [Compound 5] ?
< 10 nM

And what about the molecule Cn1cc(-c2cnc(Nc3cc(N)nc(C(F)F)n3)cc2OCC2COC2)cn1 [Compound 104] ?
< 10 nM

And what about the molecule Cn1cc(-c2cnc(Nc3cc(N)nc(CF)n3)cc2OC2CC2)cn1 [Compound 32] ?
< 10 nM

And what about the molecule COc1cc(Nc2cc(N)nc(C(F)F)n2)ncc1-c1cnn(CC2CCO2)c1 (stereo not drawn) [Compound 111] ?
< 10 nM
